Just for reference, PubChem BioAssay (NCI) is where these values come from.

- Test system: SN12C renal
- testSummary: NCI-60 one-dose screen, 48 h (100 = growth as untreated, 0 = no growth, -100 = all killed)
- particulars: 10 µM unless noted
Compounds without any hit were thinned out: in the full panel of roughly 83,000, 20% have a hit. Calls of active or inactive are those of the source. How the source made its calls: active means growth percent below 10; inactive means the rest.
// reported growth for each item listed
propertyMeasured: growth

smilesStr	reportedValue
O=C1/C(=C/c2ccccc2Cl)CCc2ccccc21	94.6% (inactive)
O=C(O)CCC(=O)OC[C@@H](NC(=O)C(Cl)Cl)[C@H](O)c1ccc([N+](=O)[O-])cc1	92.9% (inactive)
O=C(CNC(=O)c1cccc2ccccc12)Nc1ccccc1Cc1ccccc1	56.3% [5 µM] (inactive)
COc1cc2c(cc1OC)C(=O)/C(=C/c1cccc(OCC(=O)c3ccccc3)c1)C2	88.8% (inactive)
COc1ccc(-c2cc(-c3cccnc3)nc3sc(C(=O)Nc4ccccc4)c(N)c23)cc1OC	57.2% (inactive)

###

- Test system: OVCAR-8 ovarian
- testSummary: NCI-60 one-dose screen, 48 h (100 = growth as untreated, 0 = no growth, -100 = all killed)
- particulars: 10 µM unless noted
About 83,000 compounds went through this panel and 20% of them were active in at least one assay; those are over-represented in the sample as a whole.

smilesStr	unit	growth
C[C@H]1C(=O)N2c3ccccc3[C@@]3(O)C[C@@H](n4cnc5ccccc5c4=O)C(=O)N1[C@@H]23	%	91.7
COC(=O)c1cc2c(/C=C3/NC(=S)NC3=O)coc2n1C	%	76.3
Cc1cc(-c2ccccc2)cc(C)n1	%	106
CCCn1c(N)c(C(=O)CNc2ccc(I)cc2)c(=O)[nH]c1=O	%	49.5
CCN(CC)CCSc1ncnc2c1cnn2-c1ccc(S(N)(=O)=O)cc1	%	83.5
COc1cnc2c(c1)C(=O)c1c-2n(CCCN2CCNCC2)c(=O)c2cc(F)ccc12	%	2.26
Cn1cc(NC(=O)Nc2cc(C(=O)O)n(C)c2)cc1C(=O)O	%	94.4
CCCCN1c2nc3ccccc3cc2Sc2cc3ccccc3nc21	%	106
CCCCCCCCCCNCCSS(=O)(=O)O	%	65.9
CCSc1nc(-c2cccs2)n2nc(-c3ccco3)cc2n1	%	99.8
COc1ccc(OC)c(CCn2cncc2-c2c[nH]c3cc(Br)ccc23)c1	%	24.7
COc1ccc(-c2cc(-c3nnc(SCC(=O)Nc4ccc(C(C)=O)cc4)n3-c3ccccc3)c3ccccc3n2)cc1OC	%	104
COc1ccc2cc(C3=CC(=O)CCC3)ccc2c1	%	105
COP(=O)(OC)C(c1ccccc1)(c1ccccc1)c1ccccc1	%	94.6

###

- System: 786-0 renal
- testSummary: NCI-60 one-dose screen, 48 h
- particulars: 10 µM unless noted
Compounds without any hit were thinned out: in the full panel of roughly 83,000, 20% have a hit. Calls of active or inactive are those of the source. The calls were made as follows: active = growth percent below 10; inactive = the rest.
Outcomes: active, inactive

compound	experimentalSystem	assignedCategory
COc1cc(/C=C/C(=O)C(C(=O)/C=C/c2ccc(OC(=O)CCNc3nnc(C)s3)c(OC)c2)C(=O)CCNc2nnc(C)s2)ccc1OC(=O)CCNc1nnc(C)s1	786-0 renal	active
COc1ccc2nc(NC(=O)CN3CCn4c(nnc4C(F)(F)F)C3)sc2c1	786-0 renal	inactive
COc1cc(/C(Cl)=C/C=C/C(=O)c2c(C)[n+]([O-])c3ccc(Cl)cc3[n+]2[O-])cc(OC)c1OC	786-0 renal	inactive
O=C1CSC(c2ccccc2Cl)N1c1nnc(Cn2nnc3ccccc32)o1 (stereo not drawn)	786-0 renal	inactive
CCOC(=O)c1sc(NC(=O)COc2ccc(/C=C3\CCc4cc(OC)ccc4C3=O)cc2)nc1C	786-0 renal	inactive
O=c1ncc(-c2ccc(C(F)(F)F)cc2)c(NC2CCCCCC2)[nH]1	786-0 renal	inactive
Clc1ccc2nc(CI)c(CI)nc2c1	786-0 renal	active
O=C1c2cccc3c([N+](=O)[O-])ccc(c23)C(=O)N1CCCCl	786-0 renal	active
O=C(COc1cccc(/C=C2\Oc3ccc4ccccc4c3C2=O)c1)c1ccc([N+](=O)[O-])cc1	786-0 renal	inactive
CSc1nc(Nc2ccc(S(=O)(=O)Nc3ccon3)cc2)c(C#N)c(-c2ccc(Cl)cc2)n1	786-0 renal	inactive
CC(NNC(=S)N1CCCCCC1)c1ccc2ccccc2n1 (stereo not drawn)	786-0 renal	inactive
Cc1cn(C(C=O)OC(C=O)CO)c(=O)[nH]c1=O (stereo not drawn)	786-0 renal	inactive
CNCCCn1c2c(c3ccc(F)cc3c1=O)C(=O)c1cc(OC)cnc1-2	786-0 renal	active

###

- System: HCT-15 colon
- testSummary: NCI-60 one-dose screen, 48 h (100 = growth as untreated, 0 = no growth, -100 = all killed)
- particulars: 10 µM unless noted
This is part of a sample that, as a whole, favours compounds with a hit. Of some 83,000 tested, about 20% had one in any assay.
propertyMeasured: growth (%)

compound	propertyMeasured	reportedValue
COc1ccc(C2CC(c3ccc4c(c3)OCO4)=NN2C=O)cc1 (stereo not drawn)	growth	102
COc1ccc2[nH]c(=O)c(CNc3ccc(Nc4nccc(-c5ccc(Cl)cc5)n4)cc3)cc2c1	growth	74.3
COc1cc(/C(Cl)=C/C=C/C(=O)c2c(C)[n+]([O-])c3ccc(Cl)cc3[n+]2[O-])cc(OC)c1OC	growth	11.5

###

- Test system: 786-0 renal
- testSummary: NCI-60 one-dose screen, 48 h
- particulars: 10 µM unless noted
The panel holds about 83,000 compounds, 20% with a hit somewhere; the sample as a whole holds those more often. The source made the active and inactive calls. Rule for the calls: active = growth percent below 10; inactive = the rest.
Outcomes: active, inactive

compound	assignedCategory
O=C(O)CCC(=O)OC[C@@H](NC(=O)C(Cl)Cl)[C@H](O)c1ccc([N+](=O)[O-])cc1	inactive
CC(=O)N1N=C(c2ccc(Nc3nc(NCCO)nc(NCCO)n3)cc2)CC1c1ccc(Cl)cc1 (centres undefined)	inactive
Clc1ccc2[nH]cc(-c3cncn3CCc3ccccc3)c2c1	inactive
O=C1c2cc3c(cc2-c2c1c1ccc(Cl)cc1c(=O)n2CCCNCCO)OCO3	active

###

- Test system: CAKI-1 renal
- testSummary: NCI-60 one-dose screen, 48 h
- particulars: 10 µM unless noted
This is part of a sample that, as a whole, favours compounds with a hit. Of some 83,000 tested, about 20% had one in any assay. Activity calls are given as the source filed them. How the source made its calls: active means growth percent below 10; inactive means the rest.
Outcomes: active, inactive

smilesStr	assignedCategory
COc1ccc2c(c1)sc1nc(-c3ccc(N(C)C)cc3)cn12	inactive
COc1ccc(NC(=O)c2ccccc2-c2ccccc2)c(C(N)=O)c1	inactive
CCCCCN1C(=O)CCC1=O	inactive
c1ccc(N2c3nc4ccccc4cc3Sc3cc4ccccc4nc32)nc1	inactive
NS(=O)(=O)c1ccc(-n2ncc3c(N/N=C/c4ccccc4)ncnc32)cc1	inactive
Fc1ccc(-c2nn3c(-c4cc(C(F)(F)F)cc(C(F)(F)F)c4)nnc3s2)cc1	inactive
O=C1/C(=C/c2ccccc2Cl)CCc2ccccc21	inactive
CCCCCc1c(C)[nH]c(/C=C2\N=C(c3ccc[nH]3)C=C2OCc2ccccc2)c1C	active
COC(=O)c1cc2oc(/C=N\NC(=O)c3cc4oc(C)c(C)c4[nH]3)cc2[nH]1	inactive
CSc1nc(N)c2c(n1)N(C)C=NS2(=O)=O	inactive
CC(=O)OCC(=O)[C@@]1(O)CC[C@H]2[C@@H]3CCC4=CC(=O)CC[C@]4(C)[C@@]3(F)[C@@H](O)C[C@@]21C	inactive
N#Cc1c(-c2ccccc2)cc(-c2ccccc2)n(CCCCCCC(=O)O)c1=O	inactive

###

// reported growth for each item listed
- Test system: SF-295 CNS
- testSummary: NCI-60 one-dose screen, 48 h (100 = growth as untreated, 0 = no growth, -100 = all killed)
- particulars: 10 µM unless noted
- Protocol: Cells are grown in 96 well plates and exposed to the test compound for 48 hours. Compounds are tested at a single concentration, which is 10^-5 M for most compounds. The reported endpoint is percent growth (GI% or GIPRCNT), where numbers from 0 - 100% represent growth inhibition, and numbers from -100% - 0 represent cell death. For example, a value of 40 represents 60% growth inhibition. A value of 0 means no net growth occurred over the course of the experiment. […]
The panel holds about 83,000 compounds, 20% with a hit somewhere; the sample as a whole holds those more often.
propertyMeasured: growth (%)

compound	experimentalSystem	unit	reportedValue
c1cc[n+](Cc2ccnc3ccccc23)cc1	SF-295 CNS	%	95.9
NS(=O)(=O)c1cc2c(cc1Cl)NC=NS2(=O)=O	SF-295 CNS	%	104
COc1ccc(-n2cnc3cc(C(=O)N4CCCCC4)ccc32)cc1	SF-295 CNS	%	97.9
Cc1cn(C(C=O)OC(C=O)CO)c(=O)[nH]c1=O (stereo not given)	SF-295 CNS	%	102
COc1cc(C2CC(C3C(=O)N(C)C(=O)N(C)C3=O)=NN2c2cc(Cl)cc(Cl)c2)cc(OC)c1OC (stereo not given)	SF-295 CNS	%	84.4
